Every entry's value here was drawn from patent US20070276020A1.

Tested on: T. vaginalis CDC reference strain 520 (metronidazole-sensitive)
Experiment: IC50 assay, tritiated thymidine incorporation, 48 h, metronidazole-sensitive strain 520
Format: cell-based, Trichomonas vaginalis
Details: Trichomonas vaginalis, 48 h, read-out: IC50 values (μM ± SEM) 520 aerobic
# log10(IC50) annotations
outcome measure: log10(IC50) (log10 of the value in µM)

1. N=C(N)c1ccc(-c2ccc(-c3ccc(C(=N)N)cc3)o2)cc1    1.27
2. CC(C)NC(=N)c1ccc2nc(-c3ccc4oc(-c5nc6ccc(C(=N)NC(C)C)cc6[nH]5)cc4c3)[nH]c2c1    1.65
3. CC(C)NC(=N)c1ccc(-c2ccc(-c3ccc(C(=N)NC(C)C)cc3)o2)cc1    0.82
4. N=C(NC1CCCCC1)c1ccc(-c2ccc(-c3ccc(C(=N)NC4CCCCC4)cc3)o2)cc1    1.20
5. N=C(N)c1ccc(-c2ccc(-c3nc4ccc(C(=N)N)cc4[nH]3)s2)cc1    -0.01

====

System: T. vaginalis CDC reference strain 085 (metronidazole-resistant)
Assay: IC50 assay, tritiated thymidine incorporation, 48 h, metronidazole-resistant strain 085
Format: cell-based, Trichomonas vaginalis
Settings: Trichomonas vaginalis, read-out: IC50 values
outcome measure: IC50

1. N=C(N)c1ccc(-c2ccc(-c3nc4ccc(C(=N)N)cc4[nH]3)s2)cc1    ≤ 1 µM

====

# IC50 annotations
Tested on: T. vaginalis CDC reference strain 520 (metronidazole-sensitive)
Test: IC50 assay, tritiated thymidine incorporation, 48 h, metronidazole-sensitive strain 520
Assay type: cell-based, Trichomonas vaginalis
Conditions: Trichomonas vaginalis; metronidazole-sensitive strain 520, aerobic, 48 h; read-out: IC50 values (μM ± SEM) 520 aerobic
outcome measure: IC50

1. CCS(=O)(=O)CCn1c([N+](=O)[O-])cnc1C [Tinidazole, reference compound]    1.48 µM
2. Cc1ncc([N+](=O)[O-])n1CCO [Metronidazole, reference compound]    18.2 µM

====

Test system: T. vaginalis
Test: In vitro assays against T. vaginalis, overall statement in words
Format: cell-based, Trichomonas vaginalis
Procedure: Compounds were dissolved in dimethyl sulfoxide (DMSO, Sigma) and further diluted with Diamond's TYM media to reach assay concentrations. Two types of assays were performed on the cationic compounds being evaluated. […] The lowest drug concentration at which no motile trichomonads were observed was recorded as the MLC. […] Incorporated thymidine was detected using BETAPLATE™ (Wallac) scintillation fluid and plate reader. […]
outcome measure: effectiveness against T. vaginalis in vitro

1) N=C(N)c1ccc(OCCCCCOc2ccc(C(=N)N)cc2)cc1 [Pentamidine, reference compound]    not effective
2) CC(=O)NCC(=O)O.CC(=O)NCC(=O)O.N=C(N)c1ccc(N=NNc2ccc(C(=N)N)cc2)cc1 [Berenil, reference compound]    not effective
3) N=C(N)Nc1ccc(-c2ccc(-c3ccc(NC(=N)N)cc3)o2)cc1    not effective
4) N=C(N)c1ccc(-c2coc(-c3ccc(C(=N)N)cc3)c2)cc1    not effective
